Test: Pharmacokinetic/toxicokinetic evaluation in rats
Type: in vivo
Conditions: male, rat, plasma, iv, 7.1 mg/kg, male, Dose 5, 7.1 mg/kg IV once daily, read-out: T1/2 (converted)
quantity: half-life

INSERT INTO assay_data (molecule, quantity, observed_result) VALUES
  ('CN1CCCC1CCNC(=O)c1cn2c3c(c(N4CCC(c5cnccn5)C4)c(F)cc3c1=O)Oc1cc3ccccc3cc1-2 (stereo not shown)', 'half-life', '8.8 h');

* * *

Molecular target: c-Myc template DNA (c-myc quadruplex)
Assay: Quadruplex binding / stop assay (Taq polymerase arrest, capillary electrophoresis)
Details: read-out: S DATA; Table 1D, stop assay data
quantity: IC50 (nM)

INSERT INTO measurements (compound, cmp, observed_result) VALUES
  ('CN1CCCC1CCNC(=O)c1cn2c3c(c(NCCC4CCCN4C)ccc3c1=O)Oc1cc3ccccc3cc1-2 (stereo not shown) [compound 1523]', '=', 750),
  ('O=C(c1cn2c3c(c(NCCN4CCOCC4)c(F)cc3c1=O)Oc1ccccc1-2)N1CCC(N2CCCC2)CC1 [compound 1613]', '>', 15000),
  ('CN1CCCC1CCNc1ccc2c(=O)c(C(=O)NCCN3CCOCC3)cn3c2c1Oc1cc2ccccc2cc1-3 (stereo not shown) [compound 1527]', '=', 1750),
  ('CCN(CC)C(=O)C1CCCN(c2c(F)cc3c(=O)c(C(=O)NCCC4CCCN4C)cn4c3c2Oc2cc3ccccc3cc2-4)C1 (stereo not shown) [compound 1479]', '=', 1750),
  ('CC1CCCC(C)N1CCCNC(=O)c1cn2c3c(c(N4CCC(N)C4)c(F)cc3c1=O)Oc1cc3ccccc3cc1-2 (stereo not shown) [compound 1713]', '=', 750),
  ('CN1CCCC1CCNC(=O)c1cn2c3c(c(N4CCC(c5cnccn5)C4)c(F)cc3c1=O)Oc1cc(Cl)ccc1-2 (stereo not shown) [compound 1765]', '=', 3600),
  ('CN1CCCC1CCNC(=O)c1cn2c3c(c(N4CCC(c5cnccn5)C4)c(F)cc3c1=O)Oc1ccc(C#N)cc1-2 (stereo not shown) [compound 1776]', '=', 6800),
  ('COc1ccc(CN2CCN(c3c(F)cc4c(=O)c(C(=O)NCCN5CCCC5)cn5c4c3Oc3cc(Cl)ccc3-5)CC2)cc1 [compound 1828]', '=', 7500),
  ('CN1CCN(CCCNc2c(F)cc3c(=O)c(C(=O)NCCCN4CCOCC4)cn4c3c2Oc2ccccc2-4)CC1 [compound 1572]', '>', 15000),
  ('CC(C)N1CCN(c2c(F)cc3c(=O)c(C(=O)N4CCC(NC(=O)OC(C)(C)C)C4)cn4c3c2Oc2ccccc2-4)CC1 (stereo not shown) [compound 1564]', '>', 15000),
  ('NC1CCN(c2c(F)cc3c(=O)c(C(=O)NCCc4c[nH]c5ccccc45)cn4c3c2Oc2cc3ccccc3cc2-4)C1 (stereo not shown) [compound 1696]', '>', 15000),
  ('COc1cccc(CCNc2c(F)cc3c(=O)c(C(=O)NCCC4CCCN4C)cn4c3c2Oc2cc3ccccc3cc2-4)c1OC (stereo not shown) [compound 1673]', '=', 2500),
  ('O=C(NCCCN1CCOCC1)c1cn2c3c(c(NCCCN4CCOCC4)ccc3c1=O)Oc1cc3ccccc3cc1-2 [compound 1530]', '>', 15000),
  ('CCOC(=O)c1cn2c3c(c(N4CCN(C(C)=O)CC4)c(F)cc3c1=O)Oc1cc(Cl)ccc1-2 [compound 1806]', '>', 15000),
  ('CN1CCCC1CCNC(=O)c1cn2c3c(c(NCCN4CCOCC4)c(F)cc3c1=O)Oc1ccccc1-2 (stereo not shown) [compound 1608]', '>', 15000),
  ('NC1CCN(c2c(F)cc3c(=O)c(C(=O)NCCCN4CCCC4=O)cn4c3c2Oc2cc3ccccc3cc2-4)C1 (stereo not shown) [compound 1694]', '>', 15000),
  ('CN1CCCC1CCNC(=O)c1cn2c3c(c(N)c(F)cc3c1=O)Oc1c-2ccc2ccccc12 (stereo not shown) [compound 1763]', '=', 1500),
  ('CN1CCCC1CCNC(=O)c1cn2c3c(c(N4CCC(c5ccccn5)C4)c(F)cc3c1=O)Oc1cc3ccccc3cc1-2 (stereo not shown) [compound 1507]', '=', 750),
  ('CN1CCCC1CCNC(=O)c1cn2c3c(c(NCC(C)(C)CO)c(F)cc3c1=O)Oc1cc3ccccc3cc1-2 (stereo not shown) [compound 1744]', '>', 15000),
  ('CN1CCCC1CCNC(=O)c1cn2c3c(c(F)c(F)cc3c1=O)Oc1cc3ccccc3cc1-2 (stereo not shown) [compound 1739]', '=', 3300),
  ('O=C(NCCN1CCCC1)c1cn2c3c(c(SCCc4cnccn4)c(F)cc3c1=O)Oc1ccc(Cl)cc1-2 [compound 1783]', '>', 15000),
  ('CN1CCCC1CCNC(=O)c1cn2c3c(c(NCCCCCO)c(F)cc3c1=O)Oc1cc3ccccc3cc1-2 (stereo not shown) [compound 1658]', '=', 1750),
  ('CN1CCC[C@H]1CCNC(=O)c1cn2c3c(c(N4CCC(c5cnccn5)C4)c(F)cc3c1=O)Oc1cc3ccccc3cc1-2 (stereo partly shown) [compound 1742]', '=', 850),
  ('CC1CCCC(C)N1CCCNc1c(F)cc2c(=O)c(C(=O)NCCC3CCCN3C)cn3c2c1Oc1cc2ccccc2cc1-3 (stereo not shown) [compound 1687]', '=', 1750),
  ('COC(=O)N[C@H]1CCN(c2c(F)cc3c(=O)c(C(=O)NCCC4CCCN4C)cn4c3c2Oc2cc3ccccc3cc2-4)C1 (stereo partly shown) [compound 1515]', '>', 15000),
  ('CN1CCCC1CCNC(=O)c1cn2c3c(c(NCCc4ccc(O)c(O)c4)c(F)cc3c1=O)Oc1cc3ccccc3cc1-2 (stereo not shown) [compound 1680]', '=', 750),
  ('CN1CCCC1CCNC(=O)c1cn2c3c(c(N4CCN(c5ncccn5)CC4)c(F)cc3c1=O)Oc1cc(Cl)ccc1-2 (stereo not shown) [compound 1810]', '=', 7800),
  ('N=C(N)NCCCNC(=O)c1cn2c3c(c(N4CC5CCCNC5C4)c(F)cc3c1=O)Oc1cc3ccccc3cc1-2 (stereo not shown) [compound 1647]', '=', 1000);

These entries and their values trace back to patent US7507727B2.
